B1: glmS ribozyme (parent)
chain: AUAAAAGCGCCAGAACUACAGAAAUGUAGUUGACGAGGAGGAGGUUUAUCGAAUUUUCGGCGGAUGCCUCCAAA

# Variants of: B1
# METHOD_SUMMARY: self-cleavage kobs at 40 uM GlcN6P; higher = faster cleavage; RNA array
# CONDITION_DESCRIPTION: with glucosamine-6-phosphate
This sample holds only a part of the variants without activity.
VALUE_KIND: self-cleavage kobs at 40 uM GlcN6P (s⁻¹)
Answers are plain numbers, in s⁻¹.

Example entries begin here.
| VARIANT_LABEL | VALUE_MEASURED |
| --- | --- |
| C19A G40C | 7.99e-05 |
| G13U A36U C50U C70U | 7.67e-05 |
| C16G U55C | 4.65e-05 |

Hey, can you go through the list below and give me self-cleavage kobs at 40 uM GlcN6P for every item?
1. U45A U65C
2. U46A C71U

Response:
9.95e-05
8.79e-05
